src = the nanobody polyreactivity screen of Harvey et al. (2022)

Assay: yeast display, Sf9 membrane polyspecificity reagent, FACS + sequencing; frameworks hold sequencing errors
observation-type: polyreactivity (PSR sort gate)

Example entries and their recorded answers appear below.
sequence-entry | polyreactivity (PSR sort gate)
QVQLVESGGGLFQAGGSLRLSCAASGRIFNSNTMGWYRPAPGKDRELVARIDTGGGSTYADSVKGRFTISRDNAKNTVYLQMNSLQPEDTAVYHCNKIGRWRSWGSTSLVSMDYWGQGTKVTVSS | low polyreactivity
QVQLVESGGGLVQAGGSLRLSCAASGSTFYRYAMGWYRQAPGKERELVAAISSSGGSTYYADSVKGRFTISRDNAKNTVYLQMNSLKPEDTAVYYCNAAYRVRRFDYWGQGTQVTVSS | low polyreactivity
QVQLVESGGCLVQAGGSLRLSCASSGITFPGYAMGWYRQAPGKERELVAVIRKSGTSTYYADSVKGRFTISRDNAKNTVDLQMNSLKPEDTAVYYCAAGGPSTLDDYWGQGTQGTVSS | low polyreactivity
QVQLEESGGGLVKAGGSIRLSCAASGLIFYSYAMVWYRHAPGKERELVAVITRSGGNTNYADSVKGRFTISRDNAKNTVYLQMNSRKPEDTAVYYCATRGIWKKVPYYYWGQGTQVTVSS | high polyreactivity
QVQLVESGGGLVQAGGSLRLSCAASGSIFDGNAMGWYRQAPGKERELVAAITQSGCSTYYADSVKGRFTISRDNAKNTVYFQMNSLKPEDNAVYYCAADVPGVYPYDYWGQGTQVTVSS | low polyreactivity

**Query** Give recorded polyreactivity (PSR sort gate). "QVQLVESGGGVVQAGGSLRLSCAASGTFYLYAMGWYRQAPGKERELVAAISGSGSTNYADSVKGRFTISRDNAKNTVYLQMNSLKPEDTAVYYCAAYQRYDSVTGARYEYDYWGQGTQVTVSS"
**Result** low polyreactivity

**Query** Give recorded polyreactivity (PSR sort gate). "QVHLVESGGGLVQAGGSLRLSCAASGRIFYANDMGWYRQAPGKERELVAAITNTVSTTYADSVKGRFTISRDNAKNTVYLQMNSLKTEDTAVYYCNADDPYVPKADMGYWGQGTQVTVSS"
**Result** low polyreactivity

**Query** Give recorded polyreactivity (PSR sort gate). "QVQLVESWGGLVQAGGSLRLSCAASGRTIEQYAMGWYRQAPGKERELVAAISGSGGSTFYADSVKGRFTISRDNAKNTVYLQMNSLKPEDTAVYYCNAPGDGYLYDHTYDYWGQGTQVTVSS"
**Result** low polyreactivity

**Query** Give recorded polyreactivity (PSR sort gate). "QDQLVESGGGLVQAGGSLRLSFAASGSTFFTYPMGWYRQDPGKERELVAAITLNGGSTYYADSVKGRFTISRDNAKNTVYLQMISLKPEDTAVYYCAAEVPDTDYNYWGQGTQVTVSS"
**Result** low polyreactivity

**Query** Give recorded polyreactivity (PSR sort gate). "QVQLVESGGGLVQAGGSLRLSCAASGRIFAYYAMGWYRQAPGKERELVAAISRSGGSTYYADSVKGRFTISRDNAKNTVYLLMNSLKPEDTAVYYCNVVRVRYYWWEFDYWGQGTQVTVSS"
**Result** high polyreactivity

**Query** Give recorded polyreactivity (PSR sort gate). "QVQLVESGGGLVQAGGSLRLICAASGRTFPYNAMGWSRQAPGKERELVARITSGGRTYYADSVKGRFTISRDNAKNTVYLQMNSLKPEDPAVYYCAAETLRYYWKSYDWGQGTQVTVSA"
**Result** high polyreactivity
